All values here come from PubChem BioAssay AID1508600.

# z-score per entry
assay: Components of the Cytosolic LPS Sensing Pathway: Gene Identification via Genome-wide siRNA Screen; settings: RAW264.7 macrophages, IL-1a HTRF, actives lie on both sides, screened at 100 nM (by protocol), cells primed 5 h with Pam3CSK4 first;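 further: robust z of the log signal after scaling to non-targeting control siRNA wells of the plate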
The whole screen tested about 53,000 sequences, of which about 3,700 (7%) were called active. Shown is part of a subset that was picked to be rich in actives.
When you answer, write just the number.

Worked examples, 5 sequences total:
• CCUGAAAUCCUGUAGCUACTT against Pgap3 = 1.35
• CGAUGACAUCAGGAUUGUUTT against Adgrg7 = -0.124
• CCCUCAUUCUCUAGCGUGATT against H2-K1 = -1.07
• GGCUUCCAAAACAAAUCAATT against Rgn = 0.857
• GCUGGAGAUCUAAAAACAGTT against Mphosph10 = 1.54

Request: State its z-score for this sequence: GGAAGACAAUAAGAAGUGGTT against Niban2
Result: -0.576

Request: State its z-score for this sequence: GGAAACGUAUGAACAAUAATT against Sema4f
Result: 0.896

Request: Identify z-score associated with the sequence GGUAAAUGUGAAUGUAAGGTT against Ntn4
Result: 0.73

Request: Assign z-score to the following record: GGCCAGUCCAAAGACCAUCTT against Hsd3b7
Result: 1.95

Request: Provide z-score value for the following sequence: GGAUCAGACAUGCAAGAGGTT against Xlr5c
Result: -1.81

Request: // Input: CCGUGGGUUUUUUGAAUCUTT against Slc6a1 . Output its z-score only.
Result: 2.63

Request: Return z-score for the following sequence: GGCUUAUCAUACCUGGUUGTT against Olfr691
Result: 0.404

Request: For the sequence GCUCAGAGCAUGUUGGUGGTT against Dstyk , give its reported z-score.
Result: -0.805

Request: Find the measured z-score of GGGCUUUGUUUCCAAGUUGTT against Muc15 and report it.
Result: -0.285

Request: For the sequence GGAAAAGAAAGAUGUGACUTT against Trappc9 , report z-score.
Result: -2.55

Request: Report z-score, nothing else, for this sequence: GCUCAUUGCACUUGCCAAGTT against Tcea2
Result: -0.0377

Request: Could you please provide reported z-score for GCUAGUGCGCAUGUUUCUCTT against Rasgrp2 ? Thanks!
Result: 0.621

---

assay: Components of the Cytosolic LPS Sensing Pathway: Gene Identification via Genome-wide siRNA Screen; conditions: RAW264.7 macrophages, IL-1a HTRF, actives lie on both sides, screened at 100 nM (by protocol), cells primed 5 h with Pam3CSK4 first;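 further: robust z of the log signal after scaling to non-targeting control siRNA wells of the plate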
The campaign covered roughly 53,000 sequences. About 3,700 (7%) were called active. Only a selection was taken, and actives are over-represented in it overall.
Where z-score equals or exceeds 0.6, the correct label is 1; where it does not, the label is -1.

Request: Decide: is the reported value of z-score for GGAAAUCAAGCUGAAGUUATT against Eqtn equal to or greater than 0.6?
Result: -1

Request: Assess whether reported z-score for GGGCAUGUGAAGAUGUGCGTT against Map2k3 sits at 0.6 or higher.
Result: -1

Request: Kindly determine if z-score recorded for GGAAUUCGUAAAGAUUGCATT against Esrp2 is above or exactly 0.6.
Result: -1

Request: Check if z-score >= 0.6 (inclusive). Item: GCUCAUAAAACUCCAAAAGTT against Mob4
Result: -1

Request: Textbook exercise: given the entry GGUGAAGCUGAAGAAGUACTT against Chst12 , state whether its z-score is greater than or equal to 0.6.
Result: 1
